- target.of.assay: T1, cynomolgus monkey ANGPTL4 N-terminal region (amino acid residues 1-130 of SEQ ID NO:490) with a C-terminal … (cynomolgus monkey (Macaca fascicularis), UniProt Q9BY76 26-130 (human entry))
- T1 construct: also called MfANGPTL4(1-130)-His
- T1 chain: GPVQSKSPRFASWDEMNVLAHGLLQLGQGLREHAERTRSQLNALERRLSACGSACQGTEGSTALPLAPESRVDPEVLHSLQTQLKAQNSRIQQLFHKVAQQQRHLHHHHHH
- protocol.description: SPR (Biacore), 25° C., pH 5.75, antigen amino-coupled 1,028 RU
Please respond with reported t1/2 for every item in the list.
Quick reminder: number only, in h, skip the unit.

[in] Quick check: t1/2 of H1H284P (antibody, V domains shown, also called entire H1H284 mAb; Full mAb) VH: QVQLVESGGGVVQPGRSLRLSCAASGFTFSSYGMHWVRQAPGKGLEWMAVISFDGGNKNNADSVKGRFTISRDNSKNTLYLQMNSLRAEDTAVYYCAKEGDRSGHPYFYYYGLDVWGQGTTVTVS VL: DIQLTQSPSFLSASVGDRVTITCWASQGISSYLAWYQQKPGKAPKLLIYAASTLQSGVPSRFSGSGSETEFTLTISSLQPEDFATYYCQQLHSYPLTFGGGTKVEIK ?
[out] 2.28

[in] Quick check: t1/2 of H1H268P Fab fragment (Fab, V domains shown, Fab made by papain digestion of H1H268P (IgG1); also called H1H268 Fab) VH: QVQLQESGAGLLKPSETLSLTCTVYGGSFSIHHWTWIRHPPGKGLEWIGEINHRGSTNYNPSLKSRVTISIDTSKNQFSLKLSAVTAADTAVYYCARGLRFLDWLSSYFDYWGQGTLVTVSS VL: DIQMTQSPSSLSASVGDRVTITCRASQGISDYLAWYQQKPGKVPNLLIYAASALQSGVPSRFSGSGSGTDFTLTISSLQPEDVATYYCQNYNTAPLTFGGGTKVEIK ?
[out] 0.05

[in] Quick check: t1/2 of H1H284P Fab fragment (Fab, V domains shown, Fab made by papain digestion of H1H284P (IgG1); also called H1H284 Fab) VH: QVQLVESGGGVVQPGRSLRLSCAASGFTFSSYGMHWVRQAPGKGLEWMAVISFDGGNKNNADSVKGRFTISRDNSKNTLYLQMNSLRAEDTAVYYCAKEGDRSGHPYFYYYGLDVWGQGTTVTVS VL: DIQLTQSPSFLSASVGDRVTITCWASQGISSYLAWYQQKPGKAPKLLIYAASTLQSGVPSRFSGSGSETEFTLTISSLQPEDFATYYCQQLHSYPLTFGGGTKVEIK ?
[out] 0.0333

[in] Quick check: t1/2 of H1H268P (antibody, V domains shown, also called entire H1H268 mAb; Full mAb) VH: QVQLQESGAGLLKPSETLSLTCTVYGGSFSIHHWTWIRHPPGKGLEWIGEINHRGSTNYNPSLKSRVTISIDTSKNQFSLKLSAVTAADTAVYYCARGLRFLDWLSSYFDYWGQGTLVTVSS VL: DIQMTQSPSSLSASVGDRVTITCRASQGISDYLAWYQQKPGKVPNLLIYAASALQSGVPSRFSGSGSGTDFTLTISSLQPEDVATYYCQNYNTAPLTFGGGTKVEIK ?
[out] 2.33

Values from patent US20130266574A1
